All figures here come from ChEMBL document CHEMBL3046314.

// pIC50 lookup, one value per entry
System: HeLa
Protocol Text: Cytotoxicity against Homo sapiens (human) HeLa cells after 48 hr by MTT assay
Type: functional, cell-based
pIC50: −log10 of the molar value.

>  <Smiles Str>
O=C(c1cn(-c2ccccc2)nc1-c1ccncc1)N1CCN(c2ccncc2)CC1

>  <Target Of Assay>
HeLa

>  <pIC50>
< 4.00

$$$$
>  <Smiles Str>
CC(C)(C)c1ccc(OC(=O)c2cn(-c3ccccc3)nc2-c2cccnc2)cc1

>  <Target Of Assay>
HeLa

>  <pIC50>
< 4.00

$$$$
>  <Smiles Str>
O=C(NCc1ccccc1)c1cn(-c2ccccc2)nc1-c1ccncc1

>  <Target Of Assay>
HeLa

>  <pIC50>
< 4.00

$$$$
>  <Smiles Str>
O=C(c1cn(-c2ccccc2)nc1-c1cccnc1)N1CCN(c2ccccc2)CC1

>  <Target Of Assay>
HeLa

>  <pIC50>
< 4.00

$$$$
>  <Smiles Str>
O=C(Oc1ccc2ccccc2c1)c1cn(-c2ccccc2)nc1-c1ccncc1

>  <Target Of Assay>
HeLa

>  <pIC50>
< 4.00

$$$$
>  <Smiles Str>
O=C(Oc1ccc(-c2ccccc2)cc1)c1cn(-c2ccccc2)nc1-c1cccnc1

>  <Target Of Assay>
HeLa

>  <pIC50>
< 4.00

$$$$
>  <Smiles Str>
O=C(c1cn(-c2ccccc2)nc1-c1cccnc1)N1CCN(c2ccncc2)CC1

>  <Target Of Assay>
HeLa

>  <pIC50>
< 4.00

$$$$
>  <Smiles Str>
O=C(c1cn(-c2ccccc2)nc1-c1ccncc1)N1CCC(Cc2ccccc2)CC1

>  <Target Of Assay>
HeLa

>  <pIC50>
4.48

$$$$
>  <Smiles Str>
CC(C)c1cccc(OC(=O)c2cn(-c3ccccc3)nc2-c2cccnc2)c1

>  <Target Of Assay>
HeLa

>  <pIC50>
< 4.00

$$$$
>  <Smiles Str>
COc1ccc(OC(=O)c2cn(-c3ccccc3)nc2-c2cccnc2)cc1

>  <Target Of Assay>
HeLa

>  <pIC50>
< 4.00

$$$$
>  <Smiles Str>
Cc1ccc(C(C)C)c(OC(=O)c2cn(-c3ccccc3)nc2-c2ccncc2)c1

>  <Target Of Assay>
HeLa

>  <pIC50>
< 4.00

$$$$
>  <Smiles Str>
O=C(O)c1cn(-c2ccccc2)nc1-c1cccnc1

>  <Target Of Assay>
HeLa

>  <pIC50>
< 4.00

$$$$
>  <Smiles Str>
CC(C)(C)c1ccc(OC(=O)c2cn(-c3ccccc3)nc2-c2ccncc2)cc1

>  <Target Of Assay>
HeLa

>  <pIC50>
4.45

$$$$
>  <Smiles Str>
CCc1ccc(OC(=O)c2cn(-c3ccccc3)nc2-c2ccncc2)cc1

>  <Target Of Assay>
HeLa

>  <pIC50>
< 4.00

$$$$
>  <Smiles Str>
COc1ccc(OC(=O)c2cn(-c3ccccc3)nc2-c2ccncc2)cc1

>  <Target Of Assay>
HeLa

>  <pIC50>
< 4.00

$$$$
>  <Smiles Str>
O=C(O)c1cn(-c2ccccc2)nc1-c1ccncc1

>  <Target Of Assay>
HeLa

>  <pIC50>
< 4.00

$$$$
>  <Smiles Str>
O=C(c1cn(-c2ccccc2)nc1-c1cccnc1)N1CCC(Cc2ccccc2)CC1

>  <Target Of Assay>
HeLa

>  <pIC50>
4.60

$$$$
